These measurements were taken from PubChem BioAssay AID1159580.

Measured normalized growth of individual entries
# experimental_details: chemical genetic growth profiling, strain panel (AID 1159580);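 further: tested at 20 µM; growth read once vehicle control cultures reached saturation at 30 °C; 1 = growth at the plate median or of vehicle wells; lower values mean less growth of the strain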
# run_conditions: S. cerevisiae deletion strains, growth OD, locus YLR113W, strain HOG1, active compounds read low
Hit rate of the full screen: of about 5,500 compounds, about 2,000 (36%) were called active. Not shown: some 18% with an inconclusive outcome. Some of the results follow.
Quick one: just the number, no unit, thanks!

The following compounds have reported results that may help.
[[record]]
compound = "O=C(O)CC[N+](=O)[O-]"
value_observed = 1.02

[[record]]
compound = "O=c1c(O)c(-c2ccccc2)oc2ccccc12"
value_observed = 0.851

[[record]]
compound = "CC(C)N=C(N)N=C(N)Nc1ccc(Cl)cc1"
value_observed = 0.951

[[record]]
compound = "NC(N)=NC(N)=NCCc1ccccc1"
value_observed = 0.965

[[record]]
compound = "CC(=O)OCC1=C(C(=O)O)N2C(=O)[C@@H](NC(=O)CSc3ccncc3)[C@H]2SC1"
value_observed = 0.974


# context switch: different compound, same normalized growth
Prompt line: Which normalized growth reading was recorded for the compound CC(=O)OC1CCC23CC1(C)CCC2C(C)(C)CC3OC(C)=O (stereo unspecified) ?
Response line: 1

====

Measured normalized growth of individual entries
# experimental_details: chemical genetic growth profiling, strain panel (AID 1159580)
# run_conditions: S. cerevisiae deletion strains, growth OD, locus YJR043C, strain POL32, active compounds read low
Screen size: about 5,500 compounds; about 2,000 (36%) were called active. Another 18% or so got no clear call; they are omitted. This is one part of the list.
Quick one: just the number, no unit, thanks!

The following compounds have reported results that may help.
[[record]]
compound = "COc1cc2cccc(OC)c(=O)c2c(OC)c1OC"
value_observed = 0.999

[[record]]
compound = "COc1cc(C2Nc3cccc4cccc(c34)N2)cc(OC)c1OC"
value_observed = 1.01

[[record]]
compound = "COc1ccc([C@@H](C)C(=O)c2ccc(O)cc2O)cc1"
value_observed = 1.03

[[record]]
compound = "O=C(NNC(=S)Nc1cccc(Cl)c1)c1cccnc1"
value_observed = 0.999

[[record]]
compound = "COC(=O)C[C@H]1C(C)(C)[C@H](O)[C@@H]2CC3=C4CC(O)O[C@@H](c5ccoc5)[C@]4(C)CCC3[C@@]1(C)C2=O (stereo partly specified)"
value_observed = 0.975


# context switch: different compound, same normalized growth
Prompt line: Which normalized growth reading was recorded for the compound CC(=O)OCCCCN1C(=O)c2ccccc2C1=O ?
Response line: 0.997

====

# experimental_details: chemical genetic growth profiling, strain panel (AID 1159580)
# run_conditions: S. cerevisiae deletion strains, growth OD, locus YPR135W, strain CTF4, active compounds read low
The campaign covered roughly 5,500 compounds. About 2,000 (36%) were called active. About 18% were inconclusive and are not listed. The list shows a part of the results.
Returns the class for an entry based on its normalized growth. Class ranges: class A = under 0.9, class B = from 0.9 up to 1, class C = 1 and over

// known answers, use as guide
[[record]]
compound = "COC(=O)C(Cc1c[nH]c2ccccc12)NC(=O)c1c(Cl)cccc1Cl (configuration not stated)"
answer_label = "class B"

[[record]]
compound = "O=[N+]([O-])c1ccc(NCCCCCO)nc1"
answer_label = "class B"


Prompt line: State the class of the compound shown: CCOC(=O)c1ccc(Oc2ncc(C(F)(F)F)cc2Cl)cc1
Response line: class C

Prompt line: State the class of the compound shown: Clc1cc(Cl)cc(Br)c1
Response line: class C

Prompt line: State the class of the compound shown: COc1ccc(/C=C2/C(=O)N(c3cccc(Cl)c3)N=C2C)cc1
Response line: class A

Prompt line: State the class of the compound shown: CCCCC#Cc1ccc(C(=O)NNC(=O)Nc2cc(Cl)cc(Cl)c2)o1
Response line: class B

====

# experimental_details: chemical genetic growth profiling, strain panel (AID 1159580)
# run_conditions: S. cerevisiae deletion strains, growth OD, locus YOL078W, strain AVO1, active compounds read low
About 2,000 (36%) of roughly 5,500 compounds were called active. Another 18% or so got no clear call; they are omitted. The list shows a part of the results.
experimental_endpoint: normalized growth
Quick one: just the number, no unit, thanks!

The following compounds have reported results that may help.
[[record]]
compound = "Cc1csc2ncnc(N3CCN(C(=S)Nc4ccc(C(F)(F)F)cc4)CC3)c12"
experimental_endpoint = "normalized growth"
value_observed = 0.989

[[record]]
compound = "O=C(/C=C/c1ccc(Cl)cc1)Nc1cccc(Cl)c1"
experimental_endpoint = "normalized growth"
value_observed = 0.938

[[record]]
compound = "N/C(=N/OCc1c(F)cccc1Cl)c1ccc(Cl)cc1"
experimental_endpoint = "normalized growth"
value_observed = 0.915

[[record]]
compound = "Cc1oc(C(C)(C)C)cc1-c1cc(NC(=O)c2ccccc2)n[nH]1"
experimental_endpoint = "normalized growth"
value_observed = 0.981

[[record]]
compound = "O=C(OCCNc1ccc([N+](=O)[O-])cn1)c1ccc([N+](=O)[O-])o1"
experimental_endpoint = "normalized growth"
value_observed = 0.902

[[record]]
compound = "CC1SC(c2cccnc2)N(c2ccc(F)cc2F)C1=O (stereo not drawn)"
experimental_endpoint = "normalized growth"
value_observed = 0.976

[[record]]
compound = "COC(=S)Nc1cc(Cl)cc(Cl)c1"
experimental_endpoint = "normalized growth"
value_observed = 0.923

[[record]]
compound = "CC(C)Sc1c(Cl)cccc1NC(=O)Nc1cccc(C(F)(F)F)c1"
experimental_endpoint = "normalized growth"
value_observed = 0.966


Prompt line: Which normalized growth reading was recorded for the compound COC(=O)c1cc(I)c(OC(C)=O)c(I)c1 ?
Response line: 0.952

Prompt line: Which normalized growth reading was recorded for the compound CC(C)Sc1c(Cl)cccc1NC(=O)Nc1ccccc1 ?
Response line: 0.964

Prompt line: Which normalized growth reading was recorded for the compound COC(=O)c1cccc(NS(=O)(=O)c2ccc(Cl)c(Cl)c2)c1 ?
Response line: 0.979

Prompt line: Which normalized growth reading was recorded for the compound COC(=O)c1cc([N+](=O)[O-])ccc1S(=O)(=O)Cc1ccc(Cl)cc1 ?
Response line: 0.991

Prompt line: Which normalized growth reading was recorded for the compound Cc1csc2c(N3CCN(C(=S)Nc4ccc(C(F)(F)F)cc4)CC3)ncnc12 ?
Response line: 0.992

Prompt line: Which normalized growth reading was recorded for the compound FC(F)(F)c1c2c(nc3cc(-c4ccco4)nn13)CCC2 ?
Response line: 0.961

====

# experimental_details: chemical genetic growth profiling, strain panel (AID 1159580);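 further: tested at 20 µM; growth read once vehicle control cultures reached saturation at 30 °C; 1 = growth at the plate median or of vehicle wells; lower values mean less growth of the strain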
# run_conditions: S. cerevisiae deletion strains, growth OD, locus YCR088W, strain abp1
About 2,000 (36%) of roughly 5,500 compounds were called active. Not shown: some 18% with an inconclusive outcome. Cut-off read from the data, not from the text of the source: active = normalized growth mostly below about 0.91 (no sharp cut-off); inconclusive = no clear call, values can overlap the other calls; inactive = mostly above about 0.92. The list shows a part of the results.
Give your call using only these classes: active, inactive

// known answers, use as guide
[[record]]
compound = "O=C(O)CC[N+](=O)[O-]"
answer_label = "inactive"

[[record]]
compound = "ClC1C(Cl)C(Cl)C(Cl)C(Cl)C1Cl (stereo not drawn)"
answer_label = "inactive"

[[record]]
compound = "CCCCCCCCCCCCCCCC(=O)OC[C@H](NC(=O)C(Cl)Cl)[C@H](O)c1ccc([N+](=O)[O-])cc1"
answer_label = "inactive"


Prompt line: Please state the recorded outcome for this compound: O=C(/C=C/c1ccccc1)c1ccc(O[C@@H]2O[C@H](CO)[C@@H](O)[C@H](O)[C@H]2O)cc1O
Response line: inactive

Prompt line: Please state the recorded outcome for this compound: CC1(C)CC23C(=O)CCC(O)C2(C)CCC13 (stereo not drawn)
Response line: inactive

====

# experimental_details: chemical genetic growth profiling, strain panel (AID 1159580);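 further: tested at 20 µM; growth read once vehicle control cultures reached saturation at 30 °C; 1 = growth at the plate median or of vehicle wells; lower values mean less growth of the strain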
# run_conditions: S. cerevisiae deletion strains, growth OD, locus YMR129W, active compounds read low
About 2,000 (36%) of roughly 5,500 compounds were called active. About 18% were inconclusive and are not listed. The list shows a part of the results.
Measured normalized growth of individual entries

The following compounds have reported results that may help.
[[record]]
compound = "CCCN(CCC)c1c([N+](=O)[O-])cc(C(F)(F)F)cc1[N+](=O)[O-]"
value_observed = "1.01 (inactive)"

[[record]]
compound = "O=C1c2ccccc2C(=O)c2ccccc21"
value_observed = "0.996 (inactive)"

[[record]]
compound = "O=c1c(O)c(-c2ccccc2)oc2ccc3occc3c12"
value_observed = "0.88 (active)"


Prompt line: Which normalized growth reading was recorded for the compound CC(C)=CCC/C(C)=C/CO ?
Response line: 0.994 (inactive)

Prompt line: Which normalized growth reading was recorded for the compound CN1CCCCC1c1ccc(-c2cccnc2)nc1 (centres undefined) ?
Response line: 0.974 (inactive)

====

# experimental_details: chemical genetic growth profiling, strain panel (AID 1159580);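 further: tested at 20 µM; growth read once vehicle control cultures reached saturation at 30 °C; 1 = growth at the plate median or of vehicle wells; lower values mean less growth of the strain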
# run_conditions: S. cerevisiae deletion strains, growth OD, locus YMR307W, strain GAS1
In all, about 5,500 compounds went through this assay and about 2,000 (36%) were called active. Roughly 18% stayed inconclusive and do not appear here. No stated cut-off is given here; in the data, active means normalized growth mostly below about 0.91 (no sharp cut-off); inconclusive means no clear call, values can overlap the other calls; inactive means mostly above about 0.92. The list shows a part of the results.
Give your call using only these classes: true (1) (active), false (0) (inactive)

// known answers, use as guide
[[record]]
compound = "Oc1cc2c(cc1O)C(c1ccccc1)CNCC2 (stereo not given)"
answer_label = "false (0)"

[[record]]
compound = "CN1C(=O)CC[C@H]1c1cccnc1"
answer_label = "false (0)"

[[record]]
compound = "CC[C@H]1OC(=O)[C@H](C)[C@@H](O[C@H]2C[C@@](C)(OC)[C@@H](O)[C@H](C)O2)[C@H](C)[C@@H](O[C@@H]2O[C@H](C)C[C@H](N(C)C)[C@H]2O)[C@](C)(O)C[C@@H](C)/C(=N/OCOCCOC)[C@H](C)[C@@H](O)[C@]1(C)O"
answer_label = "false (0)"

[[record]]
compound = "O=C(O)CC[N+](=O)[O-]"
answer_label = "false (0)"

[[record]]
compound = "Cc1cc(O)c2c(c1)C(=O)c1cccc(O)c1C2=O"
answer_label = "false (0)"


Prompt line: Please state the recorded outcome for this compound: Oc1cc2c(cc1O)[C@H]1c3ccccc3CN[C@@H]1CC2
Response line: true (1)

Prompt line: Please state the recorded outcome for this compound: CC1=C(C(=O)O)N2C(=O)[C@@H](NC(=O)[C@@H](N)c3ccc(O)cc3)[C@H]2SC1
Response line: false (0)

Prompt line: Please state the recorded outcome for this compound: COC(=O)C[C@H]1C(C)(C)[C@@H](OC(C)=O)[C@@H]2CC3=C4CC(=O)O[C@@H](c5ccoc5)[C@]4(C)CCC3[C@@]1(C)C2=O (stereo not given in full)
Response line: false (0)
